Test system: L1210 leukemia ip in BDF1 mice, survival T/C
Assay: NCI In Vivo Anticancer Drug Screen. Data for tumor model L1210 Leukemia (intraperitoneal) in B6D2F1 (BDF1) mice
Conditions: endpoint: mean survival time; dose: 100.0 mg/kg/injection; schedule: Q01DX001 (ip); vehicle: saline; higher = longer survival
Description: The antitumor activity of compounds was measured in mice bearing transplantable tumors. Survival or tumor size were measured and the results are expressed as the measurement made in the treated group (T) divided by the measurement made in the vehicle treated control group (C). The tumor model used in this assay is L1210 Leukemia (intraperitoneal) in B6D2F1 (BDF1) mice
Toxic doses and inconclusive results are not listed.
Kindly state T/C for each of the entries shown.

Known results for molecules:
O=C1C2=C(c3ccccc31)C1c3ccccc3C(=O)C1(c1ccccc1)c1ccccc12 (stereo unspecified); 105 % of control
OC1COC(n2cnc3c(=S)nc[nH]c32)CC1O (stereo unspecified); 107 % of control
CC(=O)N/N=C(/C)c1cccs1; 103 % of control
O=C1CCn2c1c(O)c1ccccc1c2=O; 97 % of control
Cc1cs[n+](C)c1; 94 % of control
CC1(C)OC(=O)C(=Cc2c(Cl)cccc2Cl)C(=O)O1; 98 % of control
Sc1cccc2cccnc12.[Ni]; 98 % of control
O=[N+]([O-])c1ccc(-c2nn[nH]n2)cc1; 92 % of control
COc1cc2c(cc1OC)/C(=C\C#N)NCC2; 98 % of control
O=C(CC(O)c1ccccc1)Nc1ccccn1 (stereo unspecified); 98 % of control

Kindly consider the entry below.
Q: Identify the reported T/C for the following entry. COc1ccc(OC)c2c(C)cc(Cl)nc12
Ans: 104 % of control
